Target: HCV polymerase (NS5B570n-Con1) (Hepatitis C virus genotype 1b)
Construct: contains a 21 amino acid deletion at the C-terminus relative to the full-length HCV polymerase; 6-histidine (N); made in house; host or cells: E. coli strain BL21(DE) pLysS (pET17b)
Assay: biochemical
Set-up: species or system HCV Con1 strain
Details: IC50 HCV NS5B RNA Polymerase Assay (values with asterisk), values with asterisk: cIRES RNA template, 3 nM NS5B570n-Con1
pIC50: −log10 of the molar value.
Form field: pIC50 (one value per entry).

>  <molecule>
COc1c(/C=C/c2ccccc2S(C)(=O)=O)cc(-c2ccc[nH]c2=O)cc1C(C)(C)C [I-244]

>  <pIC50>
9.00

$$$$
>  <molecule>
COc1c(/C=C/c2ccc(NS(C)(=O)=O)cc2CO)cc(-c2cc(F)c[nH]c2=O)cc1C(C)(C)C [I-187]

>  <pIC50>
8.52

$$$$
>  <molecule>
COc1c(/C=C/c2ccccc2C#N)cc(-c2ccc[nH]c2=O)cc1C(C)(C)C [I-238]

>  <pIC50>
8.70

$$$$
>  <molecule>
COc1c(/C=C/c2ccc(NS(C)(=O)=O)cc2)cc(-c2ccc[nH]c2=O)cc1C1(C(F)F)CC1 [I-270]

>  <pIC50>
9.00

$$$$
>  <molecule>
COc1ccc(-c2cc(/C=C/c3ccc(NS(C)(=O)=O)cc3CO)c(OC)c(C(C)(C)C)c2)c(=O)[nH]1 [I-210]

>  <pIC50>
9.00

$$$$

---

Target: HCV polymerase (NS5B570n-Con1) (Hepatitis C virus genotype 1b, UniProt Q9WMX2)
Construct: contains a 21 amino acid deletion at the C-terminus relative to the full-length HCV polymerase; 6-histidine (N); made in house; host or cells: E. coli strain BL21(DE) pLysS (pET17b)
Assay: biochemical
Set-up: species or system HCV Con1 strain
Details: IC50 HCV NS5B RNA Polymerase Assay, values without asterisk; 20 nM NS5B570n-Con1 enzyme, 20 nM cIRES RNA template

>  <structureAsSmiles>
COc1c(O)cc(-c2ccc[nH]c2=O)cc1C(C)(C)C

>  <IC50>
1.17 µM

$$$$
>  <structureAsSmiles>
CC(C)(C)c1cc(CCc2ccc(NS(C)(=O)=O)cc2)cc(-c2cc(F)c[nH]c2=O)c1

>  <IC50>
0.01 µM

$$$$
>  <structureAsSmiles>
COc1c(/C=C(\C)c2ccc(NS(C)(=O)=O)cc2)cc(-c2ccc[nH]c2=O)cc1C(C)(C)C

>  <IC50>
0.008 µM

$$$$
>  <structureAsSmiles>
COc1c(C(=O)NCCCN2CCCC2=O)cc(-c2ccc[nH]c2=O)cc1C(C)(C)C

>  <IC50>
1.2 µM

$$$$
>  <structureAsSmiles>
COc1c(NC(=O)c2ccc(NS(C)(=O)=O)cc2)cc(-c2ccc[nH]c2=O)cc1C1(C)CC1

>  <IC50>
0.006 µM

$$$$
>  <structureAsSmiles>
COc1c(NC(=O)c2ccc(N)cn2)cc(-c2ccc[nH]c2=O)cc1C(C)(C)C

>  <IC50>
0.009 µM

$$$$
>  <structureAsSmiles>
Cc1cc(-c2ccc(CO)[nH]c2=O)cc(C(C)(C)C)c1

>  <IC50>
0.892 µM

$$$$

---

Target: HCV polymerase (NS5B570n-Con1) (Hepatitis C virus genotype 1b, UniProt Q9WMX2);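 also: recombinant His-tagged enzyme from E. coli, radiolabeled nucleotide incorporation into acid-insoluble RNA read by scintillation after filtration, no-enzyme background subtracted, activity relative to positive control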
Construct: contains a 21 amino acid deletion at the C-terminus relative to the full-length HCV polymerase; 6-histidine (N); made in house; host or cells: E. coli strain BL21(DE) pLysS (pET17b)
Test: biochemical
Parameters: species or system HCV Con1 strain
Details: IC50 HCV NS5B RNA Polymerase Assay, values without asterisk; 20 nM NS5B570n-Con1 enzyme, 20 nM cIRES RNA template
pIC50: −log10 of the molar value.
Form field: pIC50 (one value per entry).
endpointLabel: pIC50

>  <structureAsSmiles>
COc1c(/C=C/c2ccc(NS(=O)(=O)C3CC3)cc2)cc(-c2cc(F)c[nH]c2=O)cc1C(C)(C)C

>  <endpointLabel>
pIC50

>  <testValue>
8.52

$$$$
>  <structureAsSmiles>
COc1c(C(=O)c2ccc(O)cc2)cc(-c2ccc[nH]c2=O)cc1C(C)(C)C

>  <endpointLabel>
pIC50

>  <testValue>
7.23

$$$$
>  <structureAsSmiles>
CC(C)(C)c1cc(-c2ccccc2)c(O)c(-c2ccc[nH]c2=O)c1

>  <endpointLabel>
pIC50

>  <testValue>
5.53

$$$$
>  <structureAsSmiles>
CCc1ccc(-c2cc(C(C)(C)C)ccc2OC)c(=O)[nH]1

>  <endpointLabel>
pIC50

>  <testValue>
5.20

$$$$
>  <structureAsSmiles>
CC(C)(C)c1cc(CCc2ccc(NS(C)(=O)=O)cc2)c(N)c(-c2ccc[nH]c2=O)c1

>  <endpointLabel>
pIC50

>  <testValue>
8.15

$$$$
>  <structureAsSmiles>
COc1c(N(C)C(=O)c2ccc(NS(C)(=O)=O)cc2)cc(-c2ccc[nH]c2=O)cc1C(C)(C)C

>  <endpointLabel>
pIC50

>  <testValue>
6.97

$$$$
>  <structureAsSmiles>
COc1c(NC(=O)c2ccc(N)cc2Cl)cc(-c2ccc[nH]c2=O)cc1C(C)(C)C

>  <endpointLabel>
pIC50

>  <testValue>
7.51

$$$$
>  <structureAsSmiles>
CC(C)(C)c1cc(-c2ccc[nH]c2=O)cc(S(=O)(=O)c2ccccc2)c1

>  <endpointLabel>
pIC50

>  <testValue>
5.60

$$$$
